System: MIWI (PIWIL1) piRISC loaded with piRNA #1 (30 nt);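 note: 1 nM active piRISC with 0.1 nM target library at 33 °C single turnover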
measurementDescription: pre-steady-state target cleavage rate (min^-1); higher = faster piRNA-guided slicing of the target
condition: guide: piRNA #1 5'p-UGAGGUAGUAGGUUGUAUAGUAUCCAGAGG; auxiliary factor: 500 nM mouse GTSF1
The full ranking holds about 6,200 sequences; the median of “pre-steady-state target cleavage rate” is about 0.29, and the highest 2% start at about 2. Only a selection was taken, and the highest values are over-represented in it overall.
Decide by pre-steady-state target cleavage rate: equal to or exceeding 2 means Criterion met, less means Criterion not met.

Here's what some known entries look like.
sequenceData: GGUCUGGAAUACUAUACAACCUACUACCUCA
categoryLabel: Criterion not met
//
sequenceData: GCACUGGAUACUAUACAACCUACUACCUCA
categoryLabel: Criterion not met
//
sequenceData: CCUUCUGGAUACUAUACAACCUACUACCUCA
categoryLabel: Criterion met
//
sequenceData: GGAGACCUAUGUAUAGAACCUUCUACCUCA
categoryLabel: Criterion not met
//
sequenceData: GGAGACCUUACUAUACAAGCUAGUACCUCA
categoryLabel: Criterion not met

Exercise: Record GCUCAGGAUUCUAUACAACCUACUACCUCA ; criterion: pre-steady-state target cleavage rate no lower than 2. Met?
Key: Criterion not met

Exercise: Record GGAGACCUAACUAUACAACCUUCUACCACA ; criterion: pre-steady-state target cleavage rate no lower than 2. Met?
Key: Criterion not met

----------
Entries and their measured pre-steady-state target cleavage rate follow.
Tested on: MIWI (PIWIL1) piRISC loaded with piRNA #1 (30 nt);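 note: 1 nM active piRISC with 0.1 nM target library at 33 °C single turnover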
measurementDescription: pre-steady-state target cleavage rate (min^-1); higher = faster piRNA-guided slicing of the target
condition: guide: piRNA #1 5'p-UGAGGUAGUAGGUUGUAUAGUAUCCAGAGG; auxiliary factor: 500 nM mouse GTSF1
Whole data set: some 6,200 sequences, median “pre-steady-state target cleavage rate” near 0.29, cut for the highest 2% near 2. The entries come from a sample that favours the highest values as a whole.

sequenceData: GCUGUGGAUACUAUACAACCUACUACCUGA
pre-steady-state target cleavage rate: 0.776
//
sequenceData: CCUCUCGAUUCUAUACAACCUACUACCUCA
pre-steady-state target cleavage rate: 2.25
//
sequenceData: GGAGUGCAUACUAUACAACGUACUACCUCA
pre-steady-state target cleavage rate: 0.714
//
sequenceData: GGUCUCGAUACAAUACAACCUACUACCUCA
pre-steady-state target cleavage rate: 1.77
//
sequenceData: GCUCUCGAUACAAUACAACCUACUACCUCA
pre-steady-state target cleavage rate: 2.07

Would you kindly look at the next entry?
Exercise: Respond only with pre-steady-state target cleavage rate recorded for CCUCUGGAUACCUAUACAACCUACUACCUCA
Key: 1.18

----------
Entries and their measured pre-steady-state target cleavage rate follow.
Tested on: MIWI (PIWIL1) piRISC loaded with piRNA #1 (30 nt);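 note: 1 nM active piRISC with 0.1 nM target library at 33 °C single turnover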
measurementDescription: pre-steady-state target cleavage rate (min^-1); higher = faster piRNA-guided slicing of the target
condition: guide: piRNA #1 5'p-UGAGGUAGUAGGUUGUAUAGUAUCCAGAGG; auxiliary factor: 500 nM mouse GTSF1
Over roughly 6,200 sequences, “pre-steady-state target cleavage rate” has its median near 0.29; the highest 2% begin near 2. The list comes from a sample in which the highest values are over-represented; it also holds close analogues and randomly drawn sequences.
Reply with just the number.

// solved cases for pre-steady-state target cleavage rate follow
sequenceData: CCUCUCGAUACUAUACAACCUACAACCUCA
testTarget: MIWI (PIWIL1) piRISC loaded with piRNA #1 (30 nt);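 note: 1 nM active piRISC with 0.1 nM target library at 33 °C single turnover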
pre-steady-state target cleavage rate: 1.34
--
sequenceData: CCUCUGGAUAUAUACAACCUACUACCUCA
testTarget: MIWI (PIWIL1) piRISC loaded with piRNA #1 (30 nt);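 note: 1 nM active piRISC with 0.1 nM target library at 33 °C single turnover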
pre-steady-state target cleavage rate: 1.9
--
sequenceData: GGUCUGCAUUCUAUACAACCUACUACCUCA
testTarget: MIWI (PIWIL1) piRISC loaded with piRNA #1 (30 nt);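 note: 1 nM active piRISC with 0.1 nM target library at 33 °C single turnover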
pre-steady-state target cleavage rate: 1.51
--
sequenceData: GGAGUGGAUACUAUCACAACCUACUACCUCA
testTarget: MIWI (PIWIL1) piRISC loaded with piRNA #1 (30 nt);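 note: 1 nM active piRISC with 0.1 nM target library at 33 °C single turnover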
pre-steady-state target cleavage rate: 1.49
--
sequenceData: GGAGUGGUUACAAUACAACCUACUACCUCA
testTarget: MIWI (PIWIL1) piRISC loaded with piRNA #1 (30 nt);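 note: 1 nM active piRISC with 0.1 nM target library at 33 °C single turnover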
pre-steady-state target cleavage rate: 1.2

Exercise: Respond only with pre-steady-state target cleavage rate recorded for GCUCUCGAUACUAUUCAACCUACUACCUCA
Key: 1.86

Exercise: Respond only with pre-steady-state target cleavage rate recorded for GGUCUCGAUACUAAACAACCUACUACCUCA
Key: 1.68

Exercise: Respond only with pre-steady-state target cleavage rate recorded for GGAGACGAUACAAUUCAACCUACUACCUCA
Key: 0.664

Exercise: Respond only with pre-steady-state target cleavage rate recorded for GCUCUCGAUACUAUACAACCUACUACCUCA
Key: 1.86

Exercise: Respond only with pre-steady-state target cleavage rate recorded for GCUCUGCAUUCUAUACAACCUACUACCUCA
Key: 1.65

Exercise: Respond only with pre-steady-state target cleavage rate recorded for CCUCUCGAUACUAUACAACCUACUACCUGA
Key: 0.985

----------
Tested on: MIWI (PIWIL1) piRISC loaded with piRNA #1 (30 nt);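 note: 1 nM active piRISC with 0.1 nM target library at 33 °C single turnover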
measurementDescription: pre-steady-state target cleavage rate (min^-1); higher = faster piRNA-guided slicing of the target
condition: guide: piRNA #1 5'p-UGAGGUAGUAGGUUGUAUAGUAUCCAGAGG; auxiliary factor: 500 nM mouse GTSF1
Over roughly 6,200 sequences, “pre-steady-state target cleavage rate” has its median near 0.29; the highest 2% begin near 2. Many of the other results were omitted from the sample, so the highest values are more common in it than they were.
Entries and their measured pre-steady-state target cleavage rate follow.
Reply with just the number.

// solved cases for pre-steady-state target cleavage rate follow
sequenceData: GGACAGGAUACUAAACAACCUACUACCUCA
pre-steady-state target cleavage rate: 1.64

sequenceData: CCUACUGGAUACUAUACAACCUACUACCUCA
pre-steady-state target cleavage rate: 2.04

sequenceData: GGACUGGAUACCUAUACAACCUACUACCUCA
pre-steady-state target cleavage rate: 1.15

sequenceData: GCUCUGGAUACUAUACAACCUAUUACCUCA
pre-steady-state target cleavage rate: 1.88

sequenceData: GGAGUGGAUUCUAUACAACCUACUACGUCA
pre-steady-state target cleavage rate: 0.522

sequenceData: GGUCUGGAAACUAUACAACCUAGUACCUCA
pre-steady-state target cleavage rate: 0.484

Would you kindly look at the next entry?
Exercise: Respond only with pre-steady-state target cleavage rate recorded for CCACUGGAUUCUAUACAACCUACUACCUCA
Key: 2.08

----------
Tested on: MIWI (PIWIL1) piRISC loaded with piRNA #1 (30 nt);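 note: 1 nM active piRISC with 0.1 nM target library at 33 °C single turnover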
measurementDescription: pre-steady-state target cleavage rate (min^-1); MIWI and MILI are mouse PIWI proteins and EfPiwi is from a freshwater sponge; tags in brackets are library labels; higher = faster piRNA-guided slicing of the target;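 note: 1 nM active piRISC with 0.1 nM target library at 33 °C single turnover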
condition: guide: piRNA #1 5'p-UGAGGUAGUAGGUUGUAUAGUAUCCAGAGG; auxiliary factor: 500 nM mouse GTSF1
Over roughly 6,200 sequences, “pre-steady-state target cleavage rate” has its median near 0.29; the highest 2% begin near 2. The entries come from a sample that favours the highest values as a whole.
readoutLabel: pre-steady-state target cleavage rate
Reply with just the number.

// solved cases for pre-steady-state target cleavage rate follow
sequenceData: GCUCUGGUUACAAUACAACCUACUACCUCA
readoutLabel: pre-steady-state target cleavage rate
readoutValue: 1.98
--
sequenceData: GCUCAGGAUACUAUACAACCUACUACCACA
readoutLabel: pre-steady-state target cleavage rate
readoutValue: 1.75

Would you kindly look at the next entry?
Exercise: Respond only with pre-steady-state target cleavage rate recorded for GCUCUGGAUACUAUACAACCUACCUACCUCA
Key: 1.63
